What follows is a record of pKi for Cannabinoid receptor 2 (Rattus norvegicus, UniProt Q9QZN9).
In textbook form, pKi equals minus log to base ten of the concentration in mol/L.

SMILES_TEXT: CCCCCn1cc(C(=O)NC23CC4CC(CC(C4)C2)C3)c(=O)n2nc(CC)cc12
REPORTED_RESULT: 9.02

SMILES_TEXT: CCCCCn1cc(C(=O)NC23CC4CC(CC(C4)C2)C3)c(=O)n2nc(-c3ccc(C)cc3)cc12
REPORTED_RESULT: 8.42

SMILES_TEXT: CCCCCn1cc(C(=O)NC23CC4CC(CC(C4)C2)C3)c(=O)n2nc(C(C)(C)C)cc12
REPORTED_RESULT: 8.26

SMILES_TEXT: CCCCCn1cc(C(=O)NC2CCCCCC2)c(=O)n2nc(CC)cc12
REPORTED_RESULT: 8.25

SMILES_TEXT: CCCCCn1cc(C(=O)NC2CCCCC2)c(=O)n2nc(-c3ccc(C)cc3)cc12
REPORTED_RESULT: 7.21

Exam item: Tell me pKi of CCCCCn1cc(C(=O)NC23CC4CC(CC(C4)C2)C3)c(=O)n2nc(-c3cccs3)cc12 when tested on Cannabinoid receptor 2 (Rattus norvegicus, UniProt Q9QZN9).
Sequence (Q9QZN9 whole entry): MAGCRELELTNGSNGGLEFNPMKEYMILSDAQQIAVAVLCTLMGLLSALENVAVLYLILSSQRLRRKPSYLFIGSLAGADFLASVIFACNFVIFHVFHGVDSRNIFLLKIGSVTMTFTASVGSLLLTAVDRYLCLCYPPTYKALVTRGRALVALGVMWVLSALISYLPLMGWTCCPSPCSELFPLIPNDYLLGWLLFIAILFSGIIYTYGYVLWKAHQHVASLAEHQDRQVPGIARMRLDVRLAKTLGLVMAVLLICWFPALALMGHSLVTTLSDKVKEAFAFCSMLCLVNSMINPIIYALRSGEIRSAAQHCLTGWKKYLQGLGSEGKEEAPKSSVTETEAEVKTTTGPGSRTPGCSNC
Marked response: 8.12

Exam item: Tell me pKi of CCCCCn1cc(C(=O)NC23CC4CC(CC(C4)C2)C3)c(=O)n2nc(-c3ccc(C)s3)cc12 when tested on Cannabinoid receptor 2 (Rattus norvegicus, UniProt Q9QZN9).
Marked response: 7.91

Exam item: Tell me pKi of CCCCCn1cc(C(=O)NC23CC4CC(CC(C4)C2)C3)c(=O)n2nc(C)c(-c3ccc(OC)cc3)c12 when tested on Cannabinoid receptor 2 (Rattus norvegicus, UniProt Q9QZN9).
Marked response: 6.36

Exam item: Tell me pKi of CCCCCn1cc(C(=O)NC2CCCCC2)c(=O)n2nc(CC)cc12 when tested on Cannabinoid receptor 2 (Rattus norvegicus, UniProt Q9QZN9).
Marked response: 7.94

Exam item: Tell me pKi of CCCCCn1cc(C(=O)NC2CCCCCC2)c(=O)n2nc(C)cc12 when tested on Cannabinoid receptor 2 (Rattus norvegicus, UniProt Q9QZN9).
Marked response: 7.91
